Reported MIC values for the following compounds.
Test system: Acinetobacter baumannii
Assay: Antibacterial activity against imipenem-resistant Acinetobacter baumannii abh11 by broth dilution method
Format: functional
measurement_type: MIC

# compound, experimental_value
data = [
    ("C[C@@H](O)[C@H]1C(=O)N2C(C(=O)O)=C(SCCNC=N)C[C@H]12 [IMIPENEM ANHYDROUS]", "32 µg/mL"),
    ("NCC[C@H](O)C(=O)N[C@@H]1C[C@H](N)[C@@H](O[C@H]2O[C@H](CN)[C@@H](O)[C@H](O)[C@H]2O)[C@H](O)[C@H]1O[C@H]1O[C@H](CO)[C@@H](O)[C@H](N)[C@H]1O [AMIKACIN]", "> 256 µg/mL"),
    ("C[C@@H](O)[C@H]1C(=O)N2C(C(=O)O)=C(S[C@@H]3CN[C@H](C(=O)N(C)C)C3)[C@H](C)[C@H]12 [MEROPENEM]", "> 32 µg/mL"),
    ("CC(C)(O/N=C(\\C(=O)N[C@@H]1C(=O)N2C(C(=O)[O-])=C(C[n+]3ccccc3)CS[C@H]12)c1csc(N)n1)C(=O)O [CEFTAZIDIME]", "> 256 µg/mL"),
    ("CO/N=C(\\C(=O)N[C@@H]1C(=O)N2C(C(=O)O)=C(COC(C)=O)CS[C@H]12)c1csc(N)n1 [CEFOTAXIME]", "> 256 µg/mL"),
    ("CCN1CCN(C(=O)N[C@@H](C(=O)N[C@@H]2C(=O)N3[C@@H]2SC(C)(C)[C@@H]3C(=O)O)c2ccccc2)C(=O)C1=O [PIPERACILLIN]", "> 256 µg/mL"),
    ("O=C(O)c1cn(C2CC2)c2cc(N3CCNCC3)c(F)cc2c1=O [CIPROFLOXACIN]", "> 32 µg/mL"),
]
